system.name: T1, Human IL-11 (human, UniProt P20809 22-199)
T1 construct: Recombinant human IL-11 (GenScript Cat. No. Z03108-1) or IL-11 secreted by human cells; the mature form is said to have 178 residues; also called recombinant human IL-11; endogenously produced IL-11
T1 sequence: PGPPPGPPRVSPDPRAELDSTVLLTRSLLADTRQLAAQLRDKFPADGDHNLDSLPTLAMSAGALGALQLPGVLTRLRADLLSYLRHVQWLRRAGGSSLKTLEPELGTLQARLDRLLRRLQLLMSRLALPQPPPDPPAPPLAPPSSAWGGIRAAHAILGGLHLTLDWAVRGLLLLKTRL
test.name: ELISA
endpoint.name: hIL11 - average signal
Lab note: write the figure by itself, no unit.

Known hIL11 - average signal results, listed for orientation:
binder	hIL11 - average signal
YU112-C05 (antibody) EVQLVESGGGVVQPGRSLRLSCAASGFTFSSYAMHWVRQAPGKGLEWVAVISYDGSNKYYADSVKGRFTISRDNSKNTLYLQMNSLRAEDTAVYYCARIMGYDYGDYDVVDYWGQGTLVTVSSGSASAPKLEEGEFSEARVQSALTQPRSVSGSPGQSVTISCTGTISDVGGYNYVSWYQQHPGKAPKLMIYDVTKRPSGVPDRFSGSKSGNTASLTISGLQAEDEAGYYCSSYAGSYTWVFGGGTELTVL	0.458
YU100-D05 (antibody) QVQLQQSGGGVVQPGRSLRLSCAASGFTFSSYGMHWVRQAPGKGLEWVAVISYDGSNKYYADSVKGRFTISRDNSKNTLYLQMNSLRAEDTAVYYCAKIGATDPLDYWGQGTLVTVSSGSASAPKLEEGEFSEARVQSALTQPASVSGSPGQLITISCTGTNSDVGGYNYVSWYQQHPGKAPKLMIYDVSNRPSGVSNRFSGSKSGNTASLTISGLQAEDEADYYCCSYAGSYTWVFGGGTKLTVLGQPKAAPSVTLFPPSS	0.223
YU100-G11 (antibody) QVQLVESGGGVVQPGRSLRLSCAASGFTFSSYGMHWVRQAPGKGLEWVAVISYDGSNKYYADSVKGRFTISRDNSKNTLYLQMNSLRAEDTAVYYCARIMGYDYGDYDVVDYWGQGTLVTVSSGSASAPKLEEGEFSEARVQSALTQPRSVSGSPGQSVTISCTGTSSDVGGYNYVSWYQQHPGKAPKLTLYDVGKRPSGVPDRFSGSKSGNTASLTISGLQAEDEADYYCCSYAGGYTWVFGGGTKVTVV	0.498
YU100-G07 (antibody) QVQLVESGGGVVQPGRSLRLSCAASGFTFSSYGMHWVRQAPGKGLEWVAVISYDGSNKYYADSVKGRFTISRDNSKNTLYLQMNSLRAEDTAVYYCAKIGATDPLDYWGQGTLVTVSSGSASAPKLEEGEFSEARVQSALTQPASVSGSPGQSITISCTGTSSDVGAYDYVSWYQQHPGKAPKLMIYDVTNRPSGVSNRFSGSKSGNTASLTISGLQAEDEADYYCASYTRSSVWVFGGGTKLTVL	0.203

What hIL11 - average signal value was documented for this binder, YU100-E06 (antibody) QVQLVESGGGVVQPGRSLRLSCAASGFTFSSYGMHWVRQAPGKGLEWVAVISYDGSNKYYADSVKGRFTISRDNSKNTLYLQMNSLRAEDTAVYYCAKIGATDPLDYWGQGTLVTVSSGSASAPKLEEGEFSEARVQSALTQPASVSGFPEQSITISCTGTSSDVGGYDYVSWYQQHPGKAPKLMIYDVTNRPSGVSNRFSGSKSGNTASLTISGLQPEDEADYYCSSYTSNTTWVFGGGTKLTVLRQPKAAPSVTLFPPSS ?
0.173
